Each recorded value in this set is attributed to the supplement of paper PMC9170038.

# apparent KD of MS2 coat protein annotations
# System: MS2 coat protein
# assay: apparent KD of MS2 coat protein; designed switch direction (-1 OFF switch, 1 ON switch): -1; higher = weaker reporter binding
# assay-setup: Eterna round: R95; input ligand: none

# item-sequence, target, apparent KD of MS2 coat protein, µM
data = [
    ("AUUUUAAUAUAGGAUAUCGAAAUUAUUAUUUAACGAGAAGGAUAAACAUGAGGAUCACCCAUGUGGUAUCAUGG [JMFs Solution 1] (puzzle: Exclusion 6)", "MS2 coat protein", 0.196),
    ("AAGAAGCUAGGAUAUCACACUGACAACAUGAGGAUCACCCAUGUAGGUGAUCGGUUAGCUUGAGAAGGAGCGGAGG [Laedanes] (puzzle: Exclusion 5)", "MS2 coat protein", 0.0783),
    ("GCGAAAGCAAACAAGUGAAACAUGAGGAUCACCCAUGUCCUCAUUUGCUCGUCUUAUAAGCUAUGCGAAAGCAUAGC [Sensor 3, v1 - 6] (puzzle: Sensor v3, turn-off variant 1)", "MS2 coat protein", 0.0416),
    ("GGUUGACAUGAGGAUCACCCAUGUGAGGAUAUGCGAGAGAAAAAAGUGAGGAAGAAUAGCAGAAGGCGCUGUCG [salish99-ex1_r3_011] (puzzle: Exclusion 1)", "MS2 coat protein", 0.0211),
    ("AUUGAUGUUGAGGAUAUGCAUAUAUUUAUACUAGCAGAAGGCGAUACAUGAGGAUCACCCAUGUUCAUGGAAGU [JR_E6_Sub093] (puzzle: Exclusion 6)", "MS2 coat protein", 0.028),
]

====

# Tested on: MS2 coat protein
# assay: apparent KD of MS2 coat protein; designed switch direction (-1 OFF switch, 1 ON switch): -1; higher = weaker reporter binding
# assay-setup: Eterna round: R95; input ligand: FMN 200 uM
# apparent KD of MS2 coat protein annotations

# item-sequence, apparent KD of MS2 coat protein, µM
data = [
    ("AGUACUAACACGAAAGUGUUAGUCCAAUAAGCUUGUGAAACAUGAGGAUCACCCAUGUCCUCAUAAGCUCGUCUUAU [salish99_TOv2_r3_038] (puzzle: Sensor v3, turn-off variant 2)", 0.0174),
    ("GCCAGAGCAGGAUAUUCAAUAUUCCACAUGAGGAUCACCCAUGUCCAGCGAAAGCUGGAGGGAGAAGGGCUCUGGC [Fiskers Ex 5 - 8] (puzzle: Exclusion 5)", 0.0273),
    ("CUUAGACAUGAGGAUCACCCAUGUGAGGAUAUGAAAUUAAUUAAGUAUGAAGUAUGAAUCAGAAGGCACAUAUG [Mat - Mod of Hyphema D34] (puzzle: Exclusion 1)", 0.0617),
    ("CCGCAAAUGGAGGAUAUCGUAUCGGAGACGAUACGAGAAGGCCAAACAUGAGGAUCACCCAUGUGUCCUAGCGG [Mat - Exclusion 6 - Eli Mod - D102] (puzzle: Exclusion 6)", 0.0293),
    ("GGUACUAACACGAAAGUGUUAGUACUAUAAGCUUGUGUUACAUGAGGAUCACCCAUGUCCUCAUAAGCUCGUCUUAU [JL-sv3-2.16 mat747 mod] (puzzle: Sensor v3, turn-off variant 2)", 0.0867),
    ("GCCAGAGCAGGAUAUUCAAAACCUCACAUGAGGAUCACCCAUGUGGCCGAAAGGCCGGGAGGAGAAGGGCUCUGGC [Fiskers Ex 5 - 1] (puzzle: Exclusion 5)", 0.0498),
    ("AAGAAACAUGAGGAUCACCCAUGUGAGGAUAUGUAAAAUAAAAGAAAAGAAAUAAUAAACAGAAGGCACAAAGG [Mat - Mod of Hog D15] (puzzle: Exclusion 1)", 0.0521),
    ("ACAACAAGCUUUUUGUUCGUAGAACAUGAUGCUCUAGUCACAUGAGGAUCACCCAUGUCAACCAGAUAGAUAGUUGA [JR_SV3TOV2_Sub063] (puzzle: Sensor v3, turn-off variant 2)", 0.0531),
    ("CUUUUGUGAGGAUAUCAGUAGUAAAAAAAUAAAAUUACUACUGAGAAGGCACAUGAGGAUCACCCAUGUUCCUC [salish99_ex4_r3_009] (puzzle: Exclusion 4)", 0.257),
    ("GCGAAAGCAAACAAGUGAAACAUGAGGAUCACCCAUGUCCUCAUUUGCUCGUCUUAUAAGCUAUGCGAAAGCAUAGC [Sensor 3, v1 - 6] (puzzle: Sensor v3, turn-off variant 1)", 0.038),
]

====

# Test system: MS2 coat protein
# assay: apparent KD of MS2 coat protein; designed switch direction (-1 OFF switch, 1 ON switch): -1; higher = weaker reporter binding
# assay-setup: input ligand: FMN 200 uM
# thresholds on apparent KD of MS2 coat protein define classes: low (below 40 nM), intermediate (40 nM to below 90 nM), high (90 nM or more)

# item-sequence, target, label-class
records = [
    ("UUAUUAAGUGUGAGGAUAUGCUGGUCCUUGGAUCAGCAGAAGGCACAUGAGGAUCACCCAUGUACAAUAUAUUA [Mat - Exclusion 4 - JL Mod - D30] (Eterna round: R96, puzzle: Brourd's mod of Exclusion 4)", "MS2 coat protein", "high"),
    ("ACAUGUAUUGCAGGAUAUGGGACACAUGAGGAUCACCCAUGUGACCAUAUGUAAUGCCACGGGUCUCAGAAGGGUAUGUACAUG [Ex NG2 #44] (Eterna round: R96, puzzle: Exclusion NG 2)", "MS2 coat protein", "low"),
    ("UAUUAGCAAGCGAGAUCCCACAUGAGGAUCACCCAUGUAAAAGCAUCCAGAAUUACUGGGUGCAAAGCUCGUCUUAU [Winner reversed engineered 7] (Eterna round: R97, puzzle: Sensor, turn-off variant 1)", "MS2 coat protein", "low"),
    ("UCGUCCUGUGUAGGAUAUCGCGGGCUUUGCCCGCGAGAAGGACAUGAGGAUCACCCAUGUGGGCCGCGCCGCGGGCGCGGCCCA [new design] (Eterna round: R96, puzzle: Exclusion NG 1)", "MS2 coat protein", "high"),
    ("AAUAAUUGUGACUUGGGUGACAUGAGGAUCACCCAUGUCACAAGCUUGUUGCUCGUCUUAUAAUUAACCCAUGUCAC [LRO Sensor-off var1-25 mod of Stov1-13-A1 by Brourd] (Eterna round: R97, puzzle: Sensor, turn-off variant 1)", "MS2 coat protein", "intermediate"),
    ("UUAUUGUGAGGAUAUCAGGUGUGCUAGCGUACUGGUACAUCUGAGAAGGCACAUGAGGAUCACCCAUGUUUCUU [JL-ex4-3.22 Brourd mod] (Eterna round: R96, puzzle: Exclusion 4)", "MS2 coat protein", "intermediate"),
    ("UUUUGCAAGCAAAUUGUCAACAUGAGGAUCACCCAUGUGGAAGCCUUGGAGGGUGGGACCGUAAGUAGAGCUCGUUU [Eternabot (L2) Solution 34] (Eterna round: R97, puzzle: Sensor, turn-off variant 1)", "MS2 coat protein", "low"),
]

====

# Tested on: K4 kissing-loop RNA reporter;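 further: bound reporter read as fluorescence of individual clusters on recovered sequencing chips by microscopy, with normalized cluster intensities fitted with a binding model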
# assay: apparent KD of K4 kissing-loop reporter; higher = weaker reporter binding
# assay-setup: Eterna round: R107; input ligand: FMN 200 uM

# item-sequence, apparent KD of K4 kissing-loop reporter (nM)
records = [
    ("GGAUAACAGGCAGGAUAUGCUUAGUAGUAAGGCCAUAUAUACGUAUAGAGUGAUGUUUUGUACAAGGCAGAAGGGCUAAAUCCAU [FMN B Excl V2 (+4G)]", 536),
    ("UGAUGUUUAGUUCACCCAGUGAUGUUGGAAGGAGCGUGCGAAAGCACAGGUAGGUCGCCAACCUAAAAGUGUCUUGAUUAUCUAA [JR_Nu_ExcArginiA_Sub028]", 352),
    ("AGGUCACAACUACAGUGAUGUUGUGGAGAGCAGGAUAUGCAGAAAUGCAGAAGGGCUCGCUCUCUAGUGACCGAUCAAAAGAUCA [Omei KL FMN A SS A v9]", 1360),
    ("AAUCGCAGUGAUGUUGCGAUUCCGUUGAGGGAGGAUAUUGGUAAUACAAGAAGGUUCGGUUACGGGAGAUGUUAGUAAUAGGGCC [Exclusion FMN A GF21]", 46.2),
    ("AUCUUGUUUGGAGGAUAUUCUUUAUUUGACAUAACCUUCUAUAAGGUGCAGUGAUGUUGCAAUAUAGGAGAAGGUCGAGUGAGAU [Exclusion FMN B GF 18]", 190),
    ("CGGUAGUCUAUAGGGUCCAGUGAUGUUGGACAGGAUAUGCUACGCCGCAGAAGGGUCCAACUGGUUGUGAAGUUGGCUACUAGGC [Somaaxe]", 144),
    ("AACGGCCAGUCGGCCGCCACUCGAUGCAGUGAUGUUGCUAACUUUCUAAAAGAGUGAUGUUCAUGGAGGACCGGGACUAAUGUAA [#29 K4 Tryptophan B Exclusion]", 349),
    ("GUGUGACUAGUGAUGUUGGUUGCGUGGGAAGGAGCGCAGUAAAAUGCAGGUAGGUCGCCCGUAUCUCUGAUAAAAGAUUAAUUCA [KL-SSArg-A10]", 181),
    ("GCAGGACGAGGAGGAGGAUGAAUUACUGAAGGAGCGCAUAUUUUUGCAGGUAGGUCGCGGUAAAGAAGUAUAGUGAUGUUAUAUA [SSArgA.L]", 482),
    ("UGUGUUUACCUGACUCAGUGAUGUUGAGAAGGAGCGUGAGAAAUCACAGGUAGGUCGCUCAACCUAAAUUCAGGUGAGCACUAAA", 268),
    ("UUUAUUAAGACGGCCGCCACUGAUUCAUAGUGAUGUUAUGAUAUAAUUUUAGUGAUGUGCAUUAGCAGGACCGGGUCAAUUAUUA [#28 K4 Tryptophan B Exclusion]", 125),
    ("CUUGAUGGAAACAUCGAGUAGAUUACUGAUACCAGUAUCGAUAGAUACCCUUGGCAGCAGAAUCAGUGAUCACGAGUGAUGUUCG [Ex Theophylline A K4 8]", 525),
]
